- runDescription: LAP4-GFP modulation potency in yeast, dose response, cell-based, MLPCN hits, flow cytometry (AID 2745);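 note: yeast exposed to compound for three hours at 30 degrees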
- assayConditions: S. cerevisiae LAP4-GFP reporter, flow cytometry fluorescence; at 33 µM (top of the series)
Calls of active or inactive are those of the source. The rule behind the calls is not given here.
So I've got a bunch of compounds here, and I need their LAP4-GFP fluorescence (kMESF) values.

# compound, LAP4-GFP fluorescence (kMESF)
measured = [
    ("Cc1ccc(S(=O)(=O)/N=C(\\Sc2ccccc2)c2ccccc2)cc1", "6.11 kMESF (inactive)"),
    ("CCOC(=O)CS(=O)(=O)c1nc(-c2ccccc2)cc(C(F)(F)F)n1", "19.9 kMESF (inactive)"),
    ("Cc1c(NC2=C(Cl)C(=O)N(c3ccccc3)C2=O)c(=O)n(-c2ccccc2)n1C", "6.71 kMESF (inactive)"),
    ("O=C1c2cccc3c([N+](=O)[O-])ccc(c23)C(=O)N1CCc1ccccn1", "7.15 kMESF (inactive)"),
]

Please state, for each entry, its recorded LAP4-GFP fluorescence (kMESF).
1. C#CCOc1c(Br)cc(/C=C2/C(=O)ON=C2C)cc1OC
2. Cc1ccc(/C=C2\SC(=S)N(CC3CCCO3)C2=O)o1 (configuration not stated)
3. O=C1ON=C(c2ccc(Cl)cc2)/C1=C/c1ccc(O)cc1
4. Cc1cccc(C(=O)NNC(=S)NC(=O)c2ccccc2)c1
5. O=C(c1ccc(Cl)cc1)N1CCN(c2cccc3[nH]ccc23)CC1
6. O=C(O)c1ccc2c(c1)C(=O)/C(=C/c1ccccc1)C2=O

12.2 kMESF (inactive)
4.89 kMESF (inactive)
6.72 kMESF (inactive)
9.62 kMESF (inactive)
6.45 kMESF (inactive)
3.53 kMESF (inactive)

Please state, for each entry, its recorded LAP4-GFP fluorescence (kMESF).
1. O=[N+]([O-])c1ccc(S(=O)(=O)c2ccccc2)nc1
2. Cc1cc(C)c(OCC(=O)Nc2nc(-c3ccccn3)cs2)c(C)c1
3. CCCCCn1c(=O)c(C(=O)Nc2nc3ccccc3[nH]2)c(O)c2ccccc21
4. COc1ccc(C(=O)/C=C2/C(=O)Nc3ccccc32)c(OC)c1
5. CC[C@]1(c2ccccc2C)ON(c2ccccc2C(F)(F)F)C1=O
6. COc1cccc2cc(-c3nc4ccccc4o3)c(=O)oc12
7. Cc1[nH][nH]c(=O)c1C(c1ccc(-c2ccc(Cl)cc2)o1)c1c(C)[nH][nH]c1=O

["9.63 kMESF (inactive)", "5.78 kMESF (inactive)", "2.43 kMESF (inactive)", "10.1 kMESF (inactive)", "3.33 kMESF (inactive)", "3.03 kMESF (inactive)", "6.67 kMESF (inactive)"]

* * *

- runDescription: LAP4-GFP modulation potency in yeast, dose response, cell-based, MLPCN hits, flow cytometry (AID 2745);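 note: yeast exposed to compound for three hours at 30 degrees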
- assayConditions: S. cerevisiae LAP4-GFP reporter, flow cytometry fluorescence; at 33 µM (top of the series)
The source made the active and inactive calls. No rule for the calls is given here.
property: LAP4-GFP fluorescence (kMESF)

Example results:
# compound, experimentalValue
rows = [
    ("CC1=C(C)/C(=N\\OS(=O)(=O)c2ccccc2)C=CC1=O", "9.73 kMESF (inactive)"),
    ("Nc1ccc2ccc3cccc[n+]3c2c1", "10.3 kMESF (inactive)"),
    ("Cc1cc(=O)n2c3c(sc2n1)C(=O)N(Cc1ccccc1)C3=O", "9.31 kMESF (inactive)"),
    ("COc1ccc2c(c1)c(/C=C/c1cc[n+](C)cc1)cn2C", "4.11 kMESF (inactive)"),
    ("CCN(CC)c1ccc2cc(-c3nc4ccccc4[nH]3)c(=O)oc2c1", "3.03 kMESF (inactive)"),
]

Please state, for each entry, its recorded LAP4-GFP fluorescence (kMESF).
1. C=CCOc1cccc(C(=O)/C=C2/C(=O)Nc3ccccc32)c1
2. COc1ccc(C2(C)ON(c3ccccc3C(F)(F)F)C2=O)cc1 (stereo not given)
3. COC(=O)CCC(=O)OC1(C)C(=O)C2=COC(c3ccc(OC)cc3)=CC2=C(Br)C1=O (stereo not given)

8.61 kMESF (inactive)
6.61 kMESF (inactive)
6.01 kMESF (inactive)

Reference source for all entries: PubChem BioAssay AID2745
